System: Escherichia coli TOP10;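 further: peptides expressed intracellularly from a pBAD plasmid library in pooled LB shake-flask culture, induced with 0.3% L-arabinose, DNA abundance read by NGS, three biological replicates, DESeq2 with apeglm shrinkage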
EXPERIMENT NOTES: shrunken log2 fold change of peptide-encoding DNA abundance (4.5 h post-induction vs induction); higher = less antimicrobial activity (less host growth inhibition)
ASSAY CONDITIONS: time post-induction: 4.5 h; library: site-saturation at positions 5, 18, 19, 20
Parameter: shrunken log2 fold change. Scope: all listed entries.
READOUT NAME: shrunken log2 fold change

1. RRIRLRPPRLPRPRPRPMCGPRP = 0.0137
2. RRIRNRPPRLPRPRPRPDCPPRP = -0.031
3. RRIRVRPPRLPRPRPRPWSKPRP = -0.2
4. RRIRWRPPRLPRPRPRPHMKPRP = -0.204
5. RRIRARPPRLPRPRPRPCLHPRP = 1.24
6. RRIRWRPPRLPRPRPRPHPSPRP = 0.452
7. RRIRARPPRLPRPRPRPYFVPRP = -0.122
8. RRIRERPPRLPRPRPRPESFPRP = 0.0447
9. RRIRIRPPRLPRPRPRPEMHPRP = -0.328
10. RRIRCRPPRLPRPRPRPGSDPRP = -0.0369
11. RRIRPRPPRLPRPRPRPSEPPRP = -0.213
12. RRIRPRPPRLPRPRPRPSQHPRP = -0.278
13. RRIRLRPPRLPRPRPRPGDSPRP = -0.23
14. RRIRVRPPRLPRPRPRPRNLPRP = 0.107
15. RRIRDRPPRLPRPRPRPEQHPRP = 0.465
16. RRIRFRPPRLPRPRPRPIGSPRP = -0.241
17. RRIRVRPPRLPRPRPRPRFNPRP = -0.264
18. RRIRPRPPRLPRPRPRPGTSPRP = -0.0162
19. RRIRVRPPRLPRPRPRPAVGPRP = 0.186
20. RRIRGRPPRLPRPRPRPGEIPRP = 0.727
21. RRIRCRPPRLPRPRPRPCQIPRP = 0.0258
22. RRIRERPPRLPRPRPRPVADPRP = -0.0439
23. RRIRERPPRLPRPRPRPQHSPRP = -0.597
24. RRIRKRPPRLPRPRPRPLRRPRP = 0.689
25. RRIRQRPPRLPRPRPRPRRCPRP = 0.271
26. RRIRERPPRLPRPRPRPWMIPRP = -0.616
27. RRIRQRPPRLPRPRPRPFQNPRP = -0.179
28. RRIRDRPPRLPRPRPRPPKFPRP = -0.154
29. RRIRARPPRLPRPRPRPSMQPRP = 0.352
30. RRIRERPPRLPRPRPRPGYDPRP = -0.191
31. RRIRLRPPRLPRPRPRPKDRPRP = 0.0663
32. RRIRQRPPRLPRPRPRPIDKPRP = 0.0866
